Assay: yeast display, Sf9 membrane polyspecificity reagent, FACS + sequencing; frameworks hold sequencing errors
property: polyreactivity (PSR sort gate)

sequence_code	test_value
QVQIVESGGGLFQAGGSLRISCAPSGRTLRYNTMGWYRQAPGKERELVAAISIRGGSTYYADSVKGRFTISRDNAKNTVYLQMNSLKPEDTAVSYCNARFTYRWGMGYWGQGTQVTVSS	high polyreactivity
QVQLVESGGGLVQAGGSLRLSCAASGRIFPRYAMGWYRQAPGKERELVARITRRGGITYYADSVKGRFTISRDNAKNTVYLQMNSLTPEDTAVYYCNVDYYRGGDFSYGYDYWGQGTQVTVSS	high polyreactivity
QVQLVESGGGLVQAGGSLRLSCAASGSIFRGNAMGWYRQATGKERELVAAITSRASSTYYADSVKGRFTLSRDNAKNTVYLQMNSLKPEDTAVYYCAAKWVRSYYTFDHWGQGTQVTVSS	high polyreactivity
QVQLVESGGGLVQAGGSLRLSCAASGSIFTYYVMGWYRQAPGKERELVAVISRRGGRTYYADSVKGRFTISRDNAKNTVYLQMNSLKPEDTAVYYCATTYKTRYGGRYRYYYWGQGTQVTVSS	high polyreactivity
QVQLVESGGGLDQAGGSLRLSCAASGRTFTEYAMGWYRQAPGKERELVARISIGDSTYYADSVKGRFTISRDNAKNTDYLQMNSLKPEDTAVYYCNAEYSRSYRYDEGYWGQGTQVTVSS	low polyreactivity
QVQLVESWGGLFQAGGSLRLSCAASGRIWWNAMGWYIQSPGKERELVAAIRWSGGITRYADSVKGRFTFSGDNAKNTVYLQMKSLKPEDTAVYYCAARRNTVTGYQYYYWGQGTQVSVSS	high polyreactivity
QVQLVESGGGLVQAGGSLRLSCAASGRTFGRNTMGWYRQAPGKERELVAAIDWSGGSTYYADSVKGRFTISRDNAKNTVYLQMNSLKPEDTAVYYCAAKTRWNFYYWGQGTQVTVSS	high polyreactivity
QVQLVESGGGLVQAGGSLRLSCAASGSTYAAKTMGWYRQAPGKERELVAAITVRGGSTYYADSVKGRFTISRDNAKNTVYLQMNSLKPEDTAVYYCATRHPARRDYWGQGTQVTVSS	low polyreactivity
QVQLVESGGGLVQAGGSLRLSCAASGSTFQVYAMGWYRQAPGKERELVAAISNGGRTNYADSVKGRFTISRDNAKNTVYLLMNSLKPEDTAVYYCNADQVWWSFDRVLVGYEYWGQGTQVTVSS	low polyreactivity
QVQLVESGGGLVQAGGSLRLICAASGSTFGANAMGWYRQAPGKEREFVAAISGSGTTTYYADSVKGRFTISRDNAKNTVYLQMNSLKPEDTPVYYCAKTRKAHWLEYWGQGTQVTVSS	low polyreactivity
QVQLVESGGGLVQAGGSLRLSCAASGRIFRQNAMGWYRQAPGKERELVAAISRSGGSTYYADSVKGRFTISRDNAKNTVYLQMNSLKPEDTAVYYCAADVHTPALYTYAAGDYWGQGTQVTVSS	low polyreactivity
QVQLVESGGGLVQAGGSLRLSCAASGRIFFYYAMGLYRQATGKERELVAAITDSVDSTYYADSVKGRFTISRDNAKNTVYFQMKSLKPEDTAVYYCATDVDWAYGYHYEYWGQGPQVTVSS	low polyreactivity
QVQLVESGGGLVQAGGSLRLICDASGIIFFPYAMGWYRQAPGKEREFVAAIRATGDNTYYADSVKGRFTISRDNAKNTVYLQMNSLKPEDTAVYYCAADRGTYQVDYWGQGTQVTVSS	low polyreactivity
QVQPVESRGGLVQAGGSLRLSCAASGRIFARNAQGWYRTAPGKERELVAAITYSSGRTYYADSVKGRFTISRDNAKNTVYLQMNSLKPEHTAVYYCADGKGYIGVSVSGGYGYWGPGTQVTVSS	high polyreactivity
QVQLVESGGGLVQAGGSLRLSCAASGFTFRAYVMGWDRQAPGKERELVASISKRGGNTYYADSVKGRFTISRDNAKNTVYLQMNSLKPEDTAVYYCAVDFFGDRGDYDYWGQGTQVTVSS	high polyreactivity
QVQLVESGGGLVQAGGSLRLSCAASGSIFYRYAMGWYRQGPGKERELVAGITRGGSTNYADSVKGRFTISRDNAMNTVYLQMNSLKPEDTAVYYCAARSYVYVHYYYWGQGTQVTVSS	high polyreactivity
QVQLVESGGGLVQAGGSLRLSCAASGFTSDTNAMGWYRQAAGKERELVAAIDSGGGSTYYADSVKGRFTISRENSKNTVYFQMNSLKPEDTAVYYCNAEQTPFVASLRVGEYGYWGQGTQVTVSS	low polyreactivity
QVQLVESGGGLVQAGCSLRLSCASSGRTFSEYAMGWYRQAPGKERELVAAISKGGGSTYYADSVKGRCTISRDNAKNTVYLQMNSLKPEDNAVYYCAKSSHAREYYYWGQGTQVTVSS	low polyreactivity
QVQLVESGGRLVQAGGSLRLSCAASGRISWSYAMGWYRQAPGKERELVAAITSGGTTNYADSVKGRFTISRDNAKNTVYLQMNSLKPEDTAVYYCARDSYQLGLIRDPLEYDYWGQGTQVTVSS	low polyreactivity
QVQLVESGGGLVQAGGSLRLRCAASGLTFVDNAMGWYSQAPGKERELVAAITKRGGRTYYADSVKGRFTISRDNAKNTVYLQMNSLKPEDPAVYYCARDSGNDSSRRLDYWGQGTQVTVSS	low polyreactivity
QVQLVESGGGLVQAGGILRLSCAASGRIFLTYAMGWYRQAPGKERELVAAIRSRSGTTYYADSVKGRFTISRDNAKNTVYLQMNSMKPEDTAVYYCAAGGKSRSYYWGQGTQVTVSS	high polyreactivity
